Biological target: Human M4 (Homo sapiens, UniProt P08173)
Sequence (P08173 whole entry): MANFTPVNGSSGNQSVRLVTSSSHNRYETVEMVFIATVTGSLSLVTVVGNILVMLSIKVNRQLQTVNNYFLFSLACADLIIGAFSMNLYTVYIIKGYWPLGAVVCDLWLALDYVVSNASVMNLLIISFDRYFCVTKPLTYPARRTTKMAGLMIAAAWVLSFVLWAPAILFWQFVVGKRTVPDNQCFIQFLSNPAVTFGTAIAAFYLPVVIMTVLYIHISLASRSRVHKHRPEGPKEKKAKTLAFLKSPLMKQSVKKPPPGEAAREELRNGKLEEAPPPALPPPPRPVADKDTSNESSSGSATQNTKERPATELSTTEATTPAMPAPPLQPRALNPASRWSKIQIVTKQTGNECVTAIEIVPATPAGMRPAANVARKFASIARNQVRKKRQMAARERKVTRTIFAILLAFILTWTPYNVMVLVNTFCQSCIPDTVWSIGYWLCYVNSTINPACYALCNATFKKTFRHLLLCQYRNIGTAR
Test: mAChR M4 cell-based functional assay (calcium flux, potentiation of EC20 acetylcholine response)
pEC50: −log10 of the molar value.
readout.name: pEC50

A. Cc1cc(C)c2c(n1)sc1c(C3CCN(C(=O)C4CCC4)CC3)ncnc12
B. Cc1cc(C)c2c(n1)sc1c(C3CCNCC3)ncnc12
C. Cc1nnc2sc3c(C4CC4)ncnc3c2c1C
D. Cc1nnc2sc3c(CCC4CCCCO4)ncnc3c2c1C (stereo not drawn)
Prompt: Number of compounds to sort: 4. Sort criterion: pEC50, ascending. Form entry: labels listed in requested order.
Completion: B, A, D, C
(B: 5.21, A: 6.28, D: 6.55, C: 6.85)
